- PROTOCOL DETAILS: NCI Yeast Anticancer Drug Screen. Data for the bub3 strain (AID 167)
- SETUP CONDITIONS: S. cerevisiae bub3 mutant strain, at 50.0 µM, stronger effect = higher value
This is part of a sample that, as a whole, favours compounds with a hit. Of some 79,000 tested, about 15% had one in any assay.
PROPERTY: growth inhibition (%)
Answers are plain numbers, in %.

Examples from the recorded data:
Nc1cc(C(=O)O)c2ccccc2c1; 3.45
CC(C)=C1CCC(CN2CCOCC2)C1=O (stereo unspecified); -2.6
C/C(CC(=O)Nc1ccc(Cl)c(Cl)c1)=N/NC(=O)C[N+](C)(C)C; -14.8
CCCCB1OB(CCCC)OB(CCCC)O1; 7.15

// for each compound in input: emit growth inhibition
1. Cc1cccc(NC(=O)CCl)c1C
2. CCOC(=O)c1c(N)[nH]c(SSc2[nH]c(N)c(C(=O)OCC)c2C(=O)OCC)c1C(=O)OCC
3. CC1(C)CNC[C@](C)(OCCCO[C@@]2(C)CNCC(C)(C)NC2=O)C(=O)N1
4. COC1CC(NC(=O)c2ccccc2)C(O)C(C)O1 (stereo unspecified)
5. O=Ic1ccccc1

1: -21.9; 2: 17.8; 3: 3.95; 4: 0.8; 5: -0.3

Below are 4 compounds. Give each one its growth inhibition.
1. Cc1ccc2oc(=O)cc(CC(=O)O)c2c1
2. CC(=O)Nc1c(Cl)cccc1[N+](=O)[O-]
3. COc1cc2c(cc1OC)C1(c3ccccc3)ON=C(c3ccccc3)N1CS2 (stereo unspecified)
4. O=C(CCl)OCc1ccc(Cl)cc1

-10.7
-5.8
-7.05
1.25
